Data origin: ChEMBL document CHEMBL1126847

- Method Description: Inhibition of Inositol 1,4,5-trisphosphate 3-kinase from rat brain homogenate (R metabolically resistant)
- Type: tissue-based

Molecule	Ki
O=P(O)(O)OCC1CCC(COP(=O)(O)O)[C@H](COP(=O)(O)O)C1 (some centres undefined)	> 600 µM
O=P(O)(O)Cc1ccc(CP(=O)(O)O)c(CP(=O)(O)O)c1	> 200 µM
O=P(O)(O)CC1CCC(CP(=O)(O)O)[C@H](CP(=O)(O)O)C1 (some centres undefined)	> 600 µM
O=S(=O)(O)CC1CC[C@@H](CS(=O)(=O)O)C[C@H]1CS(=O)(=O)O (some centres undefined)	> 600 µM

###

# pKi annotations
- Assay Target: Inositol polyphosphate-5-phosphatase A (Homo sapiens, UniProt Q14642)
- Sequence (Q14642 whole entry): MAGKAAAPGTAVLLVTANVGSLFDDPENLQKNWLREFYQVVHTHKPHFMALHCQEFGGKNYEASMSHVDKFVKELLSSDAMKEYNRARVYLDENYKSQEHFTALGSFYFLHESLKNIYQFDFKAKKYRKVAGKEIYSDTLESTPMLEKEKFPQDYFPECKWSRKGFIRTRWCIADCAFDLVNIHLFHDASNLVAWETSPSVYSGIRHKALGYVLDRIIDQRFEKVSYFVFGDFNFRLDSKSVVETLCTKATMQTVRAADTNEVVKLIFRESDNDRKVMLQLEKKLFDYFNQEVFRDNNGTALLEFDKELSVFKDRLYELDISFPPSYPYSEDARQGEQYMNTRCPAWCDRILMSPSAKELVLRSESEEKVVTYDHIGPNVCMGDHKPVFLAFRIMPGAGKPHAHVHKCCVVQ
- Method Description: Tested for inhibition of 5-phosphatase isolated from human erythrocyte membrane (R metabolically resistant)
pKi: −log10 of the molar value.
Recorded Endpoint: pKi

Compound	Value Comparator	Numeric Result
O=P(O)(O)Cc1ccc(CP(=O)(O)O)c(CP(=O)(O)O)c1	=	3.83
O=P(O)(O)CC1CCC(CP(=O)(O)O)[C@H](CP(=O)(O)O)C1 (some centres undefined)	=	3.27
O=S(=O)(O)CC1CC[C@H](CS(=O)(=O)O)C[C@H]1CS(=O)(=O)O (some centres undefined)	<	3.00
O=P(O)(O)OCC1CCC(COP(=O)(O)O)[C@H](COP(=O)(O)O)C1 (some centres undefined)	=	3.84

###

- Method Description: Inhibition of Inositol 1,4,5-trisphosphate 3-kinase from rat brain homogenate (r-metabolically resistant)
pKi: −log10 of the molar value.
Recorded Endpoint: pKi

Compound	Numeric Result
O=P(O)(O)OC1CCC(OP(=O)(O)O)[C@H](OP(=O)(O)O)C1 (stereo partly specified)	4.44

###

- Method Description: Tested for the ability to displace [3H]1,4,5-IP3 from the 1,4,5-IP3 specific binding site of membranes from the bovine adrenal cortices
Measured Ki values are reported for all entries that follow.

Molecule	Endpoint Unit	Value Comparator	Ki
O=S(=O)(O)CC1CC[C@@H](CS(=O)(=O)O)C[C@H]1CS(=O)(=O)O (some centres undefined)	µM	>	100
O=P(O)(O)OC1CCC(OP(=O)(O)O)[C@H](OP(=O)(O)O)[C@@H]1O (some centres undefined)	µM	=	0.0396
O=P(O)(O)OC1CCC(OP(=O)(O)O)[C@H](OP(=O)(O)O)C1 (some centres undefined)	µM	=	3.95
O=P(O)(O)OCC1CCC(COP(=O)(O)O)[C@H](COP(=O)(O)O)C1 (some centres undefined)	µM	>	100
O=S(=O)(O)CC1CC[C@H](CS(=O)(=O)O)C[C@H]1CS(=O)(=O)O (some centres undefined)	µM	>	100
O=P(O)(O)Cc1ccc(CP(=O)(O)O)c(CP(=O)(O)O)c1	µM	>	100
O=P(O)(O)CC1CCC(CP(=O)(O)O)[C@H](CP(=O)(O)O)C1 (some centres undefined)	µM	>	100
O=P(O)(O)OC1[C@H](O)CC(OP(=O)(O)O)[C@H](OP(=O)(O)O)[C@@H]1O (some centres undefined)	µM	=	0.0234
O=P(O)(O)O[C@@H]1[C@H](O)[C@H](O)[C@@H](OP(=O)(O)O)[C@H](OP(=O)(O)O)[C@H]1O	µM	=	0.0022
